Assay: amyloid nucleation score (Sup35N fusion, yeast selection) (log enrichment); library NNK3; higher = more nucleation; inactive = no reads after selection;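 also: zero at mode of non-aggregating sequences after 7 days selection at 30°C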
MEASUREMENT NAME: amyloid nucleation score

Examples from the recorded data:
AKSVSLHIPTCRYHLTYIAF: inactive
YWGIDHRIAGYIC: inactive
YFYFVTHRDELGMSGPVTWA: inactive
LLYRWVGFHLIKLSVNAWLS: -1.01
EFDDRACYDDTV: inactive
RPVSTSYVRLRRVRFSYNLN: inactive

## Task Dear colleague, I am looking for the recorded amyloid nucleation score of the following substance: VCIVVGARGGGYVLRTPLRG
## Result inactive

* * *

Assay: amyloid nucleation score (Sup35N fusion, yeast selection) (log enrichment); library NNK2; higher = more nucleation; inactive = no reads after selection
MEASUREMENT NAME: amyloid nucleation score
Give a plain numeric answer without units written out.

Examples from the recorded data:
SMADFIV: -0.767
CVYRASIVRSRSNYEAVWYS: 0.341
RITFVILYDAFGEDMDLVSL: 2.09

## Task Dear colleague, I am looking for the recorded amyloid nucleation score of the following substance: CVAVDDD
## Result 0.624

## Task Dear colleague, I am looking for the recorded amyloid nucleation score of the following substance: NAFLPG
## Result 4.52

## Task Dear colleague, I am looking for the recorded amyloid nucleation score of the following substance: VFSSYYRSKEFTCIVLLGL
## Result -0.026

## Task Dear colleague, I am looking for the recorded amyloid nucleation score of the following substance: TFFDGSCLVRLSWAQLEFLT
## Result -0.471

## Task Dear colleague, I am looking for the recorded amyloid nucleation score of the following substance: MWDNFPCAVVLFKLC
## Result 0.696
